assay: Half life period was measured at pH 7.4 in phosphate buffer; type: ADME
reported.property: half-life (h)
Please reply with the bare figure in h and do not write the unit itself.

Observe how each entry below is paired with its result.
{"columns": ["compound", "reading"],
 "data": [
  ["CC(C)[C@@H](C(=O)O)N1C(=O)C(NC(=O)COc2ccccc2)CS1(=O)=O (some centres not stated)", 22],
  ["CC(C)C(C(=O)OC(C)(C)C)N1C(=O)C(NC(=O)OCc2ccccc2)CS1(=O)=O (configuration not stated)", 15.8],
  ["O=C(O)CN1C(=O)C(NC(=O)COc2ccccc2)CS1(=O)=O (configuration not stated)", 11.9],
  ["CC(C(=O)O)N1C(=O)C(NC(=O)Oc2ccc(Cl)cc2)CS1(=O)=O (configuration not stated)", 15.7],
  ["CO/N=C(/C(=O)NC1CS(=O)(=O)N(CC(=O)O)C1=O)c1csc(N)n1.O=C(O)C(F)(F)F (configuration not stated)", 5.6]
]}

Now for the compound whose half-life we want.
Need half-life of O=C(CN1C(=O)C(NC(=O)Oc2ccc(Cl)cc2)CS1(=O)=O)OCc1ccccc1 (configuration not stated) , thanks.
5.1

###

Here, each record is paired with measured MIC data.
system: Moraxella catarrhalis; test: In vitro antibacterial activity against Moraxella catarrhalis; type: functional

{"columns": ["molecule", "reading"],
 "data": [
  ["CC(C)[C@H](C(=O)O)N1C(=O)[C@@H](NC(=O)COc2ccccc2)C[S+]1[O-] (stereo not given in full)", "> 1000 µg/mL"],
  ["CO/N=C(/C(=O)NC1CS(=O)(=O)N(CC(=O)O)C1=O)c1csc(N)n1.O=C(O)C(F)(F)F (stereo not given)", "> 64 µg/mL"],
  ["O=C(O)CN1C(=O)C(NC(=O)COc2ccccc2)CS1(=O)=O (stereo not given)", "> 100 µg/mL"],
  ["CCCCNOS(=O)(=O)N1C(=O)[C@@H](NC(=O)COc2ccc(Cl)cc2)CS1(=O)=O", "> 64 µg/mL"]
]}

Need MIC of CC(C)[C@@H](C(=O)O)N1C(=O)[C@@H](NC(=O)COc2ccccc2)C[S+]1[O-] (stereo not given in full) , thanks.
> 1000 µg/mL

###

Target protein (sequence): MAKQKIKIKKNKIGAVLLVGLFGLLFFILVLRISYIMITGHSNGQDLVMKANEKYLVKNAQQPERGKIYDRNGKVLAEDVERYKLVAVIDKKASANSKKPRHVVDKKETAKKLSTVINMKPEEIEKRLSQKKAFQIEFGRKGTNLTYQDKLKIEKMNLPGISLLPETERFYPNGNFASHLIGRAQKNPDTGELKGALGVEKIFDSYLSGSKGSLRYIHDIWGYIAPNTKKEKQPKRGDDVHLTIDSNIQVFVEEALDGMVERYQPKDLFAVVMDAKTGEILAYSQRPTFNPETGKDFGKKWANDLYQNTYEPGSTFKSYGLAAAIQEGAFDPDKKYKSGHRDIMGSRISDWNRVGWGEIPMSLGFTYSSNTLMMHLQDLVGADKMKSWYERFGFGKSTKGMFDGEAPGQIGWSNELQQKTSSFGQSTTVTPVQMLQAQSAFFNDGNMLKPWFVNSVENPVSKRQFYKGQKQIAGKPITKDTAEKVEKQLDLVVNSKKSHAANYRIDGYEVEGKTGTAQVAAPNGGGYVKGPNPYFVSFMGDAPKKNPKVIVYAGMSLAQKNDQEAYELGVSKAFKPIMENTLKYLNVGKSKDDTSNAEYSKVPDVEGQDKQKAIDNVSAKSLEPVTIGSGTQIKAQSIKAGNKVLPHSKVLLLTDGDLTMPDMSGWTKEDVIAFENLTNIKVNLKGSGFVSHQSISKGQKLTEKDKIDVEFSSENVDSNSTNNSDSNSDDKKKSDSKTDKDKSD
pIC50: −log10 of the molar value.
reported.property: pIC50

{"columns": ["molecule", "pIC50"],
 "data": [
  ["CC(C)[C@H](C(=O)O)N1C(=O)[C@@H](NC(=O)COc2ccccc2)C[S+]1[O-] (some centres not stated)", "< 3.17"]
]}

Need pIC50 of CO/N=C(/C(=O)NC1CS(=O)(=O)N(CC(=O)O)C1=O)c1csc(N)n1.O=C(O)C(F)(F)F (configuration not stated) , thanks.
< 3.31

###

Here, each record is paired with measured IC50 data.
target: Penicillin-binding protein 3 (Staphylococcus aureus, UniProt Q5D1F0)
Sequence (Q5D1F0 whole entry): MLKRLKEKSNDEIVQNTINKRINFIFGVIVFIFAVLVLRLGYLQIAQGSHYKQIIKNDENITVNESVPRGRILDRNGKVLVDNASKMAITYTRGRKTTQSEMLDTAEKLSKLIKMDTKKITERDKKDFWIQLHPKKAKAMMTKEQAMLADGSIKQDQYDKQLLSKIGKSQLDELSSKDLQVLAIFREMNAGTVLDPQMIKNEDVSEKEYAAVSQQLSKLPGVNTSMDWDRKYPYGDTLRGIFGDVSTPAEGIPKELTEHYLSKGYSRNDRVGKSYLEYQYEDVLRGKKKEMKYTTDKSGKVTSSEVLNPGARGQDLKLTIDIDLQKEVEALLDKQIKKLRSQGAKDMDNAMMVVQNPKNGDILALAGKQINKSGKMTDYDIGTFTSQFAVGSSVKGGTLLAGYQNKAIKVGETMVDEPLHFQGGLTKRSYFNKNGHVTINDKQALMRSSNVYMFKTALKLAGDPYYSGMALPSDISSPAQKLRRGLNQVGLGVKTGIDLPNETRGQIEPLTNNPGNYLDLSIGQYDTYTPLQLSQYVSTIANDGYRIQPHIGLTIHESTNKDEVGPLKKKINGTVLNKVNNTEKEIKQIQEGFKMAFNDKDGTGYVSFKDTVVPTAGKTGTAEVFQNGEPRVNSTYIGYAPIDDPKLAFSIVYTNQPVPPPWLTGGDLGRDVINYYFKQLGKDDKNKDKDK

{"columns": ["compound", "reading"],
 "data": [
  ["CC(C)C(C(=O)OC(C)(C)C)N1C(=O)C(NC(=O)OCc2ccccc2)CS1(=O)=O (centres undefined)", "> 568 µM"],
  ["O=C(O)CN1C(=O)C(NC(=O)COc2ccccc2)CS1(=O)=O (centres undefined)", "> 730 µM"],
  ["CC(C(=O)OC(C)(C)C)N1C(=O)C(NC(=O)Oc2ccc(Cl)cc2)CS1(=O)=O (centres undefined)", "> 578 µM"],
  ["CC(C)[C@H](C(=O)O)N1C[C@H](NC(=O)COc2ccccc2)C1=O", "> 780 µM"],
  ["CC(C)[C@H](C(=O)OCc1ccccc1)N1C(=O)[C@@H](NC(=O)COc2ccccc2)C[S+]1[O-] (some centres undefined)", "> 545 µM"]
]}

Checklist item: IC50 tested on Penicillin-binding protein 3 (Staphylococcus aureus, UniProt Q5D1F0), entry CCCCNOS(=O)(=O)N1C(=O)[C@@H](NC(=O)COc2ccc(Cl)cc2)CS1(=O)=O , value?
> 532 µM

Checklist item: IC50 tested on Penicillin-binding protein 3 (Staphylococcus aureus, UniProt Q5D1F0), entry CC(C)[C@H](C(=O)O)N1C(=O)[C@@H](NC(=O)COc2ccccc2)C[S+]1[O-] (some centres undefined) , value?
> 679 µM

Checklist item: IC50 tested on Penicillin-binding protein 3 (Staphylococcus aureus, UniProt Q5D1F0), entry O=C(O)CN1C[C@H](NC(=O)COc2ccccc2)C1=O , value?
> 898 µM

Checklist item: IC50 tested on Penicillin-binding protein 3 (Staphylococcus aureus, UniProt Q5D1F0), entry CO/N=C(/C(=O)NC1CS(=O)(=O)N(CC(=O)O)C1=O)c1csc(N)n1.O=C(O)C(F)(F)F (centres undefined) , value?
> 495 µM

###

Here, each record is paired with measured pIC50 data.
target: Penicillin-binding protein 2 (Staphylococcus aureus)
Sequence (Q53729 whole entry): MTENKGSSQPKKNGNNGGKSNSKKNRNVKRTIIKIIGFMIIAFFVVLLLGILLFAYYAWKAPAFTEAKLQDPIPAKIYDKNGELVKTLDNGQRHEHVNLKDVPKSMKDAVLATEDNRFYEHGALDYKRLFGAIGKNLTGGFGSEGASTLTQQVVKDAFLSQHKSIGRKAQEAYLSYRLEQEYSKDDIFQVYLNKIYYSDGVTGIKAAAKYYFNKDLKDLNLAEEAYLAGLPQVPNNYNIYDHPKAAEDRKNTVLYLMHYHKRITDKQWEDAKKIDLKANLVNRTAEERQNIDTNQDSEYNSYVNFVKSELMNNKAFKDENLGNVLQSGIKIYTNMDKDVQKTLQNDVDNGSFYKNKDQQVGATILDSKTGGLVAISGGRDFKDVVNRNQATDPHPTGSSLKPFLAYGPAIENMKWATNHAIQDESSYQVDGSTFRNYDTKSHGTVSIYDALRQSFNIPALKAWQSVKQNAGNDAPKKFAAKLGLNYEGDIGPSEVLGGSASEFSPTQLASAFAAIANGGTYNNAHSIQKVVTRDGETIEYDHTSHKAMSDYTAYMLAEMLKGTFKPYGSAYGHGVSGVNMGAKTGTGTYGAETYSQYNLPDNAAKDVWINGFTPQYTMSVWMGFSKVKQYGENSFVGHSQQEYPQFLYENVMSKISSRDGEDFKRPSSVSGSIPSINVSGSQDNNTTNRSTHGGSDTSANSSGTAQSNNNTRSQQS
pIC50: −log10 of the molar value.

Observe how each entry below is paired with its result.
{"columns": ["compound", "pIC50"],
 "data": [
  ["CO/N=C(/C(=O)NC1CS(=O)(=O)N(CC(=O)O)C1=O)c1csc(N)n1.O=C(O)C(F)(F)F (stereo unspecified)", "< 3.31"],
  ["CC(C)[C@H](C(=O)O)N1C(=O)[C@@H](NC(=O)COc2ccccc2)C[S+]1[O-] (stereo partly specified)", "< 3.17"],
  ["CC(C)C(C(=O)OC(C)(C)C)N1C(=O)C(NC(=O)OCc2ccccc2)CS1(=O)=O (stereo unspecified)", "< 3.25"],
  ["CC(C(=O)OC(C)(C)C)N1C(=O)C(NC(=O)Oc2ccc(Cl)cc2)CS1(=O)=O (stereo unspecified)", "< 3.24"],
  ["O=C(CN1C(=O)C(NC(=O)Oc2ccc(Cl)cc2)CS1(=O)=O)OCc1ccccc1 (stereo unspecified)", "< 3.26"]
]}

Now for the compound whose pIC50 we want.
Checklist item: pIC50 tested on Penicillin-binding protein 2 (Staphylococcus aureus), entry CCCCNOS(=O)(=O)N1C(=O)[C@@H](NC(=O)COc2ccc(Cl)cc2)CS1(=O)=O , value?
< 3.27

###

assay: Half life period was measured at pH 7.4 in phosphate buffer; assay type: ADME
reported.property: half-life

Observe how each entry below is paired with its result.
{"columns": ["compound", "half-life"],
 "data": [
  ["CC(C)[C@@H](C(=O)O)N1C(=O)[C@@H](NC(=O)COc2ccccc2)C[S+]1[O-] (stereo partly specified)", "< 1.4 h"],
  ["CC(C)[C@H](C(=O)OCc1ccccc1)N1C(=O)[C@@H](NC(=O)COc2ccccc2)C[S+]1[O-] (stereo partly specified)", "< 0.5 h"]
]}

Need half-life of CCCCNOS(=O)(=O)N1C(=O)[C@@H](NC(=O)COc2ccc(Cl)cc2)CS1(=O)=O , thanks.
< 0.4 h

Need half-life of CC(C)[C@H](C(=O)O)N1C[C@H](NC(=O)COc2ccccc2)C1=O , thanks.
> 48 h

Need half-life of O=C(O)CN1C[C@H](NC(=O)COc2ccccc2)C1=O , thanks.
> 32 h

Need half-life of CC(C)[C@H](C(=O)O)N1C(=O)[C@@H](NC(=O)COc2ccccc2)C[S+]1[O-] (stereo partly specified) , thanks.
< 3.3 h
